Target: menin (Homo sapiens, UniProt O00255, T541A)
Construct: Menin (a.a. 1-610-6×his tag)
Sequence (O00255 with tags, fused parts or gaps T541A): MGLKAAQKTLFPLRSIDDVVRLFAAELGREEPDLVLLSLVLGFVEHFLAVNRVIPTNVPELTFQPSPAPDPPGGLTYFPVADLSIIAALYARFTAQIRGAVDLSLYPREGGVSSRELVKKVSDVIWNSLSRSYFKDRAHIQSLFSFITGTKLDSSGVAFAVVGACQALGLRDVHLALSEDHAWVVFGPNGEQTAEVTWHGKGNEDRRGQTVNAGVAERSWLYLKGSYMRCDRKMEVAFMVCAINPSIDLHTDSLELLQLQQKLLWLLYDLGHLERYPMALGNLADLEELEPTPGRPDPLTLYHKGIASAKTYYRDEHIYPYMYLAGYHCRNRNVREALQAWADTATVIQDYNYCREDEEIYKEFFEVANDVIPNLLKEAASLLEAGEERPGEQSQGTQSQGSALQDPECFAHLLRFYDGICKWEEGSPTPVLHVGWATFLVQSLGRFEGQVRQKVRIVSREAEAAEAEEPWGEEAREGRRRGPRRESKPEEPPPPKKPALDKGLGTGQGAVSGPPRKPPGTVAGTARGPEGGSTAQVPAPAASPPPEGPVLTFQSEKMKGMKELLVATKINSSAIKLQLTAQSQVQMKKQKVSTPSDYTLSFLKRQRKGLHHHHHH
Assay: Menin/MLL homogenous time-resolved fluorescence (HTRF) assay
Assay type: binding
Conditions: location 2; read-out: (2) location 2 Menin HTRF assay (IC50 (nM))
Method: 2) Menin/MLL Homogenous Time-Resolved Fluorescence (HTRF) Assay […] Compound potencies were determined by first calculating % inhibition at each compound concentration according to equation 1: % inhibition=((HC−LC)−(HTRF^compound−LC))/(HC−LC))*100 (Eqn 1) […]

{"COMPOUND": "CNC(=O)c1ccc(N[C@@H]2CC[C@@]3(CCN(c4ncnc5sc(CC(F)(F)F)cc45)C3)C2)cc1 (stereo in doubt)", "UNIT_SYMBOL": "nM", "INEQUALITY_SYMBOL": "=", "IC50": 1.6}
{"COMPOUND": "CNC(=O)c1ccc(NC2CC3(CCN(c4ncnc5sc(CC(F)(F)F)cc45)C3)C2)c(F)c1F (single isomer, unassigned) [Compound 226]", "UNIT_SYMBOL": "nM", "INEQUALITY_SYMBOL": "=", "IC50": 7.8}
{"COMPOUND": "N#CCn1c(=O)[nH]c2cc(NC3CC4(CCN(c5ncnc6sc(CC(F)(F)F)cc56)C4)C3)ccc21 (single isomer, unassigned) [Compound 357]", "UNIT_SYMBOL": "nM", "INEQUALITY_SYMBOL": "=", "IC50": 3.1}
{"COMPOUND": "FC(F)(F)Cc1cc2c(N3CCC4(CCC(NCc5ccccc5)C4)C3)ncnc2s1 (single isomer, unassigned) [Compound 4]", "UNIT_SYMBOL": "nM", "INEQUALITY_SYMBOL": "=", "IC50": 39.9}
{"COMPOUND": "CNc1nc(N2CCC3(CC(Nc4ccccc4)C3)C2)c2cc(CC(F)(F)F)sc2n1 (single isomer, unassigned) [Compound 268]", "UNIT_SYMBOL": "nM", "INEQUALITY_SYMBOL": "=", "IC50": 943}
{"COMPOUND": "O=C(NCCN1CCOCC1)c1ccc(NC2CC3(CCN(c4ncnc5sc(CC(F)(F)F)cc45)C3)C2)cc1 (single isomer, unassigned) [Compound 88]", "UNIT_SYMBOL": "nM", "INEQUALITY_SYMBOL": "=", "IC50": 3.8}
{"COMPOUND": "CNc1nc(N2CCC3(CC(Nc4ccccc4)C3)C2)c2cc(CC(F)(F)F)sc2n1 (single isomer, unassigned) [Compound 269]", "UNIT_SYMBOL": "nM", "INEQUALITY_SYMBOL": "=", "IC50": 78.6}
{"COMPOUND": "O=c1[nH]c2cc(CNC3CCC4(C3)CN(c3ncnc5sc(CC(F)(F)F)cc35)C4)ccc2o1 (single isomer, unassigned) [Compound 58]", "UNIT_SYMBOL": "nM", "INEQUALITY_SYMBOL": "=", "IC50": 2.9}
{"COMPOUND": "O=c1[nH]c2ccc(N[C@H]3CCC4(C3)CN(c3ncnc5sc(CC(F)(F)F)cc35)C4)cc2[nH]1 (single isomer, unassigned)", "UNIT_SYMBOL": "nM", "INEQUALITY_SYMBOL": "=", "IC50": 128}
{"COMPOUND": "CN(CC1CC2(CCN(c3ncnc4sc(CC(F)(F)F)cc34)C2)C1)c1ccccc1 (centres unmarked)", "UNIT_SYMBOL": "nM", "INEQUALITY_SYMBOL": "=", "IC50": 339}
{"COMPOUND": "O=C(NC1CCC2(C1)CN(c1ncnc3sc(CC(F)(F)F)cc13)C2)c1cccc(-c2cc[nH]n2)c1 (centres unmarked)", "UNIT_SYMBOL": "nM", "INEQUALITY_SYMBOL": "=", "IC50": 3890}
{"COMPOUND": "CNS(=O)(=O)c1ccc(NC2CC3(CCN(c4ncnc5sc(CC(F)(F)F)cc45)C3)C2)cc1 (mixture of isomers) [Compound 316]", "UNIT_SYMBOL": "nM", "INEQUALITY_SYMBOL": "=", "IC50": 8.8}
{"COMPOUND": "N#CCc1ccc(NC2CC3(CCN(c4ncnc5sc(CC(F)(F)F)cc45)C3)C2)cc1 (centres unmarked) [Compound 44]", "UNIT_SYMBOL": "nM", "INEQUALITY_SYMBOL": "=", "IC50": 11.3}
{"COMPOUND": "O=C(c1cnc(NC2CC3(CCN(c4ncnc5sc(CC(F)(F)F)cc45)C3)C2)nc1)N1CCOCC1 (single isomer, unassigned) [Compound 259]", "UNIT_SYMBOL": "nM", "INEQUALITY_SYMBOL": ">", "IC50": 10000}
